# assayed-system: UniProt:Q60492
# measurement-notes: S1R radioligand binding assay ([3H](+)-pentazocine, guinea pig brain cortex membranes)
# Design: The thawed membrane preparation of guinea pig brain cortex; from tissue; host or cells: guinea pig brain (cerebral) cortex membranes
# experimental-setup: guinea pig cerebral cortex membranes, [3H]-(+)-pentazocine; read-out: Experimental Ki S1R (nM) ± SEM
measured-parameter: Ki (nM)
Please give a number only; it is taken to be in nM.

Example entries and their recorded answers appear below.
[in] Which Ki is listed for "O=C(CCN1CCCCC1)c1ccc(OCc2ccccc2)cc1" ?
[out] 25

[in] Which Ki is listed for "O=C(CCCN1CCCCC1)c1ccc2ccccc2c1" ?
[out] 4.4

Others:
[in] Which Ki is listed for "O=C(CCCN1CCCCC1)c1ccc(OCc2ccccc2)cc1" ?
[out] 87

[in] Which Ki is listed for "O=C(CN1CCCCC1)c1ccc(-c2ccccc2)cc1" ?
[out] 132

====

# assayed-system: UniProt Q60492
# measurement-notes: S1R binding affinity of previously published compounds
# experimental-setup: ln of experimental Ki S1R (nM), Table 1
measured-parameter: ln(Ki)

Example entries and their recorded answers appear below.
[in] Which ln(Ki) is listed for O=C(CCN1CCOCC1)c1ccc2ccccc2c1 [Compound 5] ?
[out] 2.197

[in] Which ln(Ki) is listed for O=C(CCN1CCCCC1)c1ccc2ccccc2c1 [Compound 3] ?
[out] 0.788

[in] Which ln(Ki) is listed for O=C(CCN1CCCCC1)c1ccc(-c2ccccc2)cc1 [Compound 2] ?
[out] 2.708

Others:
[in] Which ln(Ki) is listed for O=C(CN1CCC(Cc2ccccc2)CC1)c1ccc2ccccc2c1 [Compound 1] ?
[out] 3.296

[in] Which ln(Ki) is listed for O=C(CCN1CCOCC1)c1ccc(-c2ccccc2)cc1 [Compound 4] ?
[out] 1.065

[in] Which ln(Ki) is listed for O=C(CN1CCC(Cc2ccccc2)CC1)c1ccc(-c2ccccc2)cc1 [Compound 6] ?
[out] 5.829

====

# assayed-system: AChE (Electrophorus electricus)
# Sequence (O42275 24-633): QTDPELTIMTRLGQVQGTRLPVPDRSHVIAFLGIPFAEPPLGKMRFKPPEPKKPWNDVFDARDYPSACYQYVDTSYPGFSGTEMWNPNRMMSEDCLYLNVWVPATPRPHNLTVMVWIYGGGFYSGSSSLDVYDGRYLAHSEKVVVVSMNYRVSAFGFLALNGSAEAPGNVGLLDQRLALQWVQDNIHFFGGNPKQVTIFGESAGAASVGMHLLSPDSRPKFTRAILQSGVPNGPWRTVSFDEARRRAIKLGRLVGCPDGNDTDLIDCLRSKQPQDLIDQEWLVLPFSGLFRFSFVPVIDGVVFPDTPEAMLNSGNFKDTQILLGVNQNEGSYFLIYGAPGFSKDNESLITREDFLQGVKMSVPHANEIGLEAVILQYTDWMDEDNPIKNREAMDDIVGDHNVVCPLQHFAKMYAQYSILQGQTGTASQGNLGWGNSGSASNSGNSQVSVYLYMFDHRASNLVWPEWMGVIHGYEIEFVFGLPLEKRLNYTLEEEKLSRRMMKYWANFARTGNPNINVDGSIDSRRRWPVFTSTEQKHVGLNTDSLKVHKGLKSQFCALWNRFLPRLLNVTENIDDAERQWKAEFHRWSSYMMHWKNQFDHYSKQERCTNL
# measurement-notes: Inhibition of AChE, modified Ellman's method
# Assay type: biochemical
# experimental-setup: Ellman's method
measured-parameter: IC50 (nM)
Please give a number only; it is taken to be in nM.

[in] Which IC50 is listed for O=C(CCCN1CCCCC1)c1ccc(-c2ccccc2)cc1 [Compound 12] ?
[out] 680

====

Reported Ki values follow for various compounds
# assayed-system: S1R (Cavia porcellus)
# Sequence (Q60492 whole entry): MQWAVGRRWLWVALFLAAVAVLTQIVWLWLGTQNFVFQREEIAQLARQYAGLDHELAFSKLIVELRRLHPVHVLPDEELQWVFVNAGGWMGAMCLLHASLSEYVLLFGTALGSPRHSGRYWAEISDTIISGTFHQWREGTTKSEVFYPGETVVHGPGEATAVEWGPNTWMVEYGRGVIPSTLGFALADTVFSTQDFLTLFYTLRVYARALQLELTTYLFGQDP
# measurement-notes: S1R radioligand binding assay ([3H](+)-pentazocine, guinea pig brain cortex membranes)
# Design: The thawed membrane preparation of guinea pig brain cortex; from tissue; host or cells: guinea pig brain (cerebral) cortex membranes
# experimental-setup: ln of experimental Ki S1R (nM); read-out: Experimental Ki S1R (converted)
Mention the unit after the number when you answer.

Example entries and their recorded answers appear below.
[in] Which Ki is listed for O=C(CCN1CCCCC1)c1ccc(OCc2ccccc2)cc1 [Compound 10] ?
[out] 25 nM

[in] Which Ki is listed for O=C(CN1CCCCC1)c1ccc(-c2ccccc2)cc1 [Compound 8] ?
[out] 132 nM

[in] Which Ki is listed for O=C(CCCN1CCCCC1)c1ccc2ccccc2c1 [Compound 11] ?
[out] 4.4 nM

Turning to the following compound.
[in] Which Ki is listed for O=C(CCCN1CCCCC1)c1ccc(OCc2ccccc2)cc1 [Compound 13] ?
[out] 87 nM

====

# assayed-system: UniProt Q60492
# measurement-notes: S1R radioligand binding assay ([3H](+)-pentazocine, guinea pig brain cortex membranes)
# Set-up: The thawed membrane preparation of guinea pig brain cortex; from tissue; host or cells: guinea pig brain (cerebral) cortex membranes
# experimental-setup: Experimental Ki S1R (nM) ± SEM, guinea pig cerebral cortex membranes, [3H]-(+)-pentazocine
measured-parameter: Ki
Mention the unit after the number when you answer.

[in] Which Ki is listed for "O=C(CN1CCCCC1)c1ccc(OCc2ccccc2)cc1" ?
[out] 48 nM

Others:
[in] Which Ki is listed for "O=C(CCCN1CCCCC1)c1ccc(-c2ccccc2)cc1" ?
[out] 33 nM
